system: Pseudomonas aeruginosa P1021903; type: cell-based; settings: P1021903
Non-standard residues stand in square brackets, D forms with d. Residues, ends and D or L forms follow the SMILES beside them. Dab = NCC[C@H](N)C(=O)O
Test readout: MIC P. aeruginosa P1021903 (µg/mL)
Give the value, in units of µg/mL, as a plain number.

Problem: State, in one line, measured MIC P. aeruginosa P1021903 of CC[C@H](C)[C@@H]1NC(=O)[C@H](Cc2c[nH]c3ccccc23)NC(=O)[C@H]([C@@H](C)O)NC(=O)[C@@H]2CCCN2C(=O)[C@H]2CCCN2C(=O)[C@H](CCN)NC(=O)[C@H](C)NC(=O)[C@H](CCN)NC(=O)[C@H](CCN)NC(=O)[C@H](Cc2c[nH]c3ccccc23)NC(=O)[C@H](CCCCN)NC(=O)[C@H](CCN)NC(=O)[C@H](CCCCN)NC(=O)[C@H](CCN)NC1=O [Example 26] (cyclo(TWI[Dab]K[Dab]KW[Dab][Dab]A[Dab][dP]P))
Result: 0.13

Problem: // fetch MIC P. aeruginosa P1021903 given entry CC[C@H](C)[C@@H]1NC(=O)[C@H](Cc2c[nH]c3ccccc23)NC(=O)[C@H]([C@@H](C)O)NC(=O)[C@@H]2CCCN2C(=O)[C@H]2CCCN2C(=O)[C@H](CCN)NC(=O)[C@H](C)NC(=O)[C@H](CCN)NC(=O)[C@H](CCN)NC(=O)[C@H](Cc2c[nH]c3ccccc23)NC(=O)[C@H](CCN)NC(=O)[C@H](CCN)NC(=O)[C@H](CCCCN)NC(=O)[C@H](CCC(N)=O)NC1=O [Example 29] (cyclo(TWIQK[Dab][Dab]W[Dab][Dab]A[Dab][dP]P))
Result: 0.13

###

Non-standard residues stand in square brackets, D forms with d. Residues, ends and D or L forms follow the SMILES beside them. Tle = CC(C)(C)[C@H](N)C(=O)O; Dab = NCC[C@H](N)C(=O)O
Test readout: Average MIC

Problem: State recorded Average MIC with P. aeruginosa, entry CC[C@H](C)[C@@H]1NC(=O)[C@H](Cc2c[nH]c3ccccc23)NC(=O)[C@H]([C@@H](C)O)NC(=O)[C@@H]2CCCN2C(=O)[C@H]2CCCN2C(=O)[C@H](CCN)NC(=O)[C@@H](C)NC(=O)[C@H](CCN)NC(=O)[C@H](CCN)NC(=O)[C@H](Cc2c[nH]c3ccccc23)NC(=O)[C@H](CCN)NC(=O)[C@H](CCN)NC(=O)[C@H](CCCCN)NC(=O)[C@H](CCN)NC1=O [Example 3] (cyclo(TWI[Dab]K[Dab][Dab]W[Dab][Dab][dA][Dab][dP]P)) , no comment.
Result: 0.6 µg/mL

Problem: Provide the reported Average MIC (system: P. aeruginosa) for CC[C@H](C)[C@@H]1NC(=O)[C@H](Cc2c[nH]c3ccccc23)NC(=O)[C@H]([C@@H](C)O)NC(=O)[C@@H]2CCCN2C(=O)[C@H]2CCCN2C(=O)[C@H](CCN)NC(=O)[C@H](C(C)(C)C)NC(=O)[C@H](CCN)NC(=O)[C@H](CCN)NC(=O)[C@H](Cc2c[nH]c3ccccc23)NC(=O)[C@H](CCN)NC(=O)[C@H](CCN)NC(=O)[C@H](CCCCN)NC(=O)[C@H](CCN)NC1=O [Example 36] (cyclo(TWI[Dab]K[Dab][Dab]W[Dab][Dab][Tle][Dab][dP]P))
Result: 0.22 µg/mL
